B1: tRNA (parent)
chain: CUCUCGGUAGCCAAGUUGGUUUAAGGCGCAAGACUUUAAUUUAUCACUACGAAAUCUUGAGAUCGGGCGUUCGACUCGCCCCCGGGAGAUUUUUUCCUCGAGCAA

variants of: B1; experiment: nonsense suppression (GFP-seq) (ratio to wild type); higher = more function; SUP4oc tRNA, yeast GFP reporter sort-seq
Variants at the floor of the assay were thinned out.
Please provide measured nonsense suppression for the entries that follow.
Write the number on its own, no unit after it.

So what does the record say about nonsense suppression for C12U G25A G61C ?
0.823

So what does the record say about nonsense suppression for U20C U35C ?
0.0559

So what does the record say about nonsense suppression for A14G A30U ?
0.0337
